Target: T1, hPD-1.His (human, UniProt Q15116 25-170)
T1 construct: the SPR text says only human PD-1; also called human PD-1 (SPR analyte)
T1 sequence (Q15116 25-170): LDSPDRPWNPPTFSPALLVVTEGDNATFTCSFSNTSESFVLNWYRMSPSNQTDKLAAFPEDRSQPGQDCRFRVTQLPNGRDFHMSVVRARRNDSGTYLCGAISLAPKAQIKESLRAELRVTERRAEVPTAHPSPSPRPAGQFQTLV
Experiment: SPR (ProteOn XPR36), antibody captured on Protein A, PD-1.His as analyte, 1:1 fit
Quick reference for Kd among some binders
Give the quantity in nM, number only.

Some binders with recorded Kd:
2E5 (antibody, human IgG4, V domains shown) VH: QVQLVQSGAEVKKPGSSVKVSCKASGFTFTTYYISWVRQAPGQGLEYLGYINMGSGGTNYNEKFKGRVTITADKSTSTAYMELSSLRSEDTAVYYCAIIGYFDYWGQGTMVTVSS VL: DVVMTQSPLSLPVTLGQPASISCRSSQSLLDSDGGTYLYWFQQRPGQSPRRLIYLVSTLGSGVPDRFSGSGSGTDFTLKISRVEAEDVGVYYCMQLTHWPYTFGQGTKLEIK | 6.13
2G4 (antibody, human IgG4, V domains shown) VH: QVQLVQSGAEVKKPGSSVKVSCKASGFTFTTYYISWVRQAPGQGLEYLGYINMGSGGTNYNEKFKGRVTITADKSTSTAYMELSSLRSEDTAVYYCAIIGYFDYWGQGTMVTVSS VL: DVVMTQSPLSLPVTLGQPASISCRSSQSLLDSDGSTYLYWFQQRPGQSPRRLIYLVSTLGSGVPDRFSGSGSGTDFTLKISRVEAEDVGVYYCMQLTHWPYTFGQGTKLEIK | 7.09

// Kd value for 1H6 (antibody, human IgG4, V domains shown) VH: QVQLVQSGAEVKKPGSSVKVSCKASGFTFTTYYISWVRQAPGQGLEYLGYINMGSGGTNYNEKFKGRVTITADKSTSTAYMELSSLRSEDTAVYYCAILGYFDYWGQGTMVTVSS VL: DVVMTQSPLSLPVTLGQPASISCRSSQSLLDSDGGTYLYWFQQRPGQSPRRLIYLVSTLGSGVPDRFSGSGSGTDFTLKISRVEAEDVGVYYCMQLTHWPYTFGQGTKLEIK : 14.3

Entry 2C2 (antibody, human IgG4, V domains shown) VH: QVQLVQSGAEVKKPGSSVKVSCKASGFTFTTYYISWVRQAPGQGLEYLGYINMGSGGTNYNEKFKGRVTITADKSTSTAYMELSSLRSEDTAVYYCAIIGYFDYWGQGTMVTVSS VL: DVVMTQSPLSLPVTLGQPASISCRSSQSLLDSDGATYLYWFQQRPGQSPRRLIYLVSTLGSGVPDRFSGSGSGTDFTLKISRVEAEDVGVYYCMQLTHWPYTFGQGTKLEIK — recorded Kd = 5.64
